Measured IC50Na-TCDC[µmol] / IC50Na-Substanz[µmol] accompanies every entry in the list below.
# subject of test: Na⁺-abhängiges Gallensäuretransportsystem (Bürstensaummembranvesikel des Ileums) (Oryctolagus cuniculus, UniProt Q28727)
# Construct: Präparation von Bürstensaummembranvesikeln aus dem Ileum von Kaninchen; from tissue; host or cells: Brush border membrane vesicles from the terminal ileum of male New Zealand rabbits (Mg2+ precipitation method)
# Sequence (Q28727 1-347): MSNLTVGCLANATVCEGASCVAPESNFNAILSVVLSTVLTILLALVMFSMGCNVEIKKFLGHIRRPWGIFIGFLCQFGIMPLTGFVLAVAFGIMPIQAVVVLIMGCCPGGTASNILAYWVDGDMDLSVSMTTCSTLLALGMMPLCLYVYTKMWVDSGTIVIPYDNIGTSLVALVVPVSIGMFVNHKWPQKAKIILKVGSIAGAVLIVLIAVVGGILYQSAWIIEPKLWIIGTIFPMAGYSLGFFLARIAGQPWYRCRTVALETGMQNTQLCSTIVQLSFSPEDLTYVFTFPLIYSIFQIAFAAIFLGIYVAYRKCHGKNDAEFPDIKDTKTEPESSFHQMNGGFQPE
# test method notes: Inhibition of [³H]-taurocholate uptake into brush border membrane vesicles of rabbit ileum (membrane filtration technique)
# Type: biochemical, Kaninchen
# protocol conditions: quotient of IC50Na of reference Taurochenodesoxycholat (TCDC) and IC50Na of test substance; Na⁺-dependent transport part (difference Na-T-P minus K-T-P), 50 µM Taurocholat

mol_smiles=C[C@H](CCC(=O)N[C@H]1C[C@@H]2C[C@H](O)CC[C@]2(C)[C@H]2C[C@H](O)[C@]3(C)[C@@H]([C@H](C)CCC(=O)NCCS(=O)(=O)O)CC[C@H]3[C@H]12)[C@H]1CC[C@H]2[C@@H]3[C@H](O)C[C@@H]4C[C@H](O)CC[C@]4(C)[C@H]3CC[C@]12C result=0,52

Please indicate IC50Na-TCDC[µmol] / IC50Na-Substanz[µmol] recorded for `C[C@H](CCC(=O)NCCO[C@@H]1C[C@@H]2C[C@H](O)CC[C@]2(C)[C@H]2C[C@H](O)[C@]3(C)[C@@H]([C@H](C)CCC(=O)NCCS(=O)(=O)O)CC[C@H]3[C@H]12)[C@H]1CC[C@H]2[C@@H]3[C@H](O)C[C@@H]4C[C@H](O)CC[C@]4(C)[C@H]3C[C@H](O)[C@]12C`
0,96

----------
# subject of test: Na⁺-abhängiges Gallensäuretransportsystem (Bürstensaummembranvesikel des Ileums) (Oryctolagus cuniculus)
# Construct: Präparation von Bürstensaummembranvesikeln aus dem Ileum von Kaninchen; from tissue; host or cells: Brush border membrane vesicles from the terminal ileum of male New Zealand rabbits (Mg2+ precipitation method)
# test method notes: Inhibition of [³H]-taurocholate uptake into brush border membrane vesicles of rabbit ileum (membrane filtration technique)
# Type: biochemical, Kaninchen
# protocol conditions: quotient of IC50Na of reference Taurochenodesoxycholat (TCDC) and IC50Na of test substance; Na⁺-dependent transport part (difference Na-T-P minus K-T-P), 50 µM Taurocholat
Measured IC50Na-TCDC[µmol] / IC50Na-Substanz[µmol] accompanies every entry in the list below.

compound="C[C@H](CCC(=O)NCCO[C@@H]1C[C@@H]2C[C@H](O)CC[C@]2(C)[C@H]2C[C@H](O)[C@]3(C)[C@@H]([C@H](C)CCC(=O)O)CC[C@H]3[C@H]12)[C@H]1CC[C@H]2[C@@H]3[C@H](O)C[C@@H]4C[C@H](O)CC[C@]4(C)[C@H]3C[C@H](O)[C@]12C [Beispiel 30]" result=0,85

Please indicate IC50Na-TCDC[µmol] / IC50Na-Substanz[µmol] recorded for C[C@H](CCC(=O)N[C@H]1C[C@@H]2C[C@H](O)CC[C@]2(C)[C@H]2C[C@H](O)[C@]3(C)[C@@H]([C@H](C)CCC(=O)NCCS(=O)(=O)O)CC[C@H]3[C@H]12)[C@H]1CC[C@H]2[C@@H]3[C@H](O)C[C@@H]4C[C@H](O)CC[C@]4(C)[C@H]3C[C@H](O)[C@]12C [Beispiel 39]
1,05
